Data credit: patent US8299048B2

target: human GR (Homo sapiens); assay: Trans-Activation Modulation of Glucocorticoid Receptor (GRAMMER), MMTV-LUC reporter, agonist mode; format: cell-based; design: endogenous in cells; settings: A549 cells; inflection point; read-out: Transactivation A549 Cells GRAMMER IP
Property: EC50; scope: individual molecules
measure: EC50 (nM)

>>> df
                           structure_smiles  reported_measurement
0  CCCCCCCCS(=O)(=O)N(CCc1ccccc1F)C[C@H]1CCC2=Cc3c(cnn3-c3ccc(F)cc3)C[C@@]21C                   258
1  C[C@]12Cc3cnn(-c4ccc(F)cc4)c3C=C1CC[C@@H]2CN(CCO)S(=O)(=O)c1cccc(C#N)c1                   951
2  C[C@]12Cc3cnn(-c4ccc(F)cc4)c3C=C1CC[C@@H]2CN(CCc1ccccc1F)S(=O)(=O)Cc1ccccc1C(F)(F)F                   521
3  COc1ccccc1CCN(C[C@H]1CCC2=Cc3c(cnn3-c3ccc(F)cc3)C[C@@]21C)S(=O)(=O)Cc1cccc(C(F)(F)F)c1                   202
4  C[C@]12Cc3cnn(-c4ccc(F)cc4)c3C=C1CC[C@@H]2CN(CC#N)S(=O)(=O)Cc1ccccc1                   995
5  C[C@]12Cc3cnn(-c4ccc(F)cc4)c3C=C1CC[C@@H]2CN(CCc1ccccc1F)S(=O)(=O)CC(F)(F)F                   119
6  Cc1noc(C)c1S(=O)(=O)NC[C@H]1CCC2=Cc3c(cnn3-c3ccc(F)cc3)C[C@@]21C                   419

====

Property: GITAR > GRAMM % SEP; scope: individual compounds
molecular target: human GR (Homo sapiens, UniProt P04150); experiment: Transrepression Assay (GITAR), TNFα-β-lactamase reporter in U937 cells; type: cell-based; design: U937 cells contain an endogenous glucocorticoid receptor (GR); endogenous in cells; host or cells: U937 cells stably transfected with the TNF-alpha promoter/beta-lactamase reporter; conditions: GITAR Emax minus GRAMMER Emax
Sequence (P04150 whole entry): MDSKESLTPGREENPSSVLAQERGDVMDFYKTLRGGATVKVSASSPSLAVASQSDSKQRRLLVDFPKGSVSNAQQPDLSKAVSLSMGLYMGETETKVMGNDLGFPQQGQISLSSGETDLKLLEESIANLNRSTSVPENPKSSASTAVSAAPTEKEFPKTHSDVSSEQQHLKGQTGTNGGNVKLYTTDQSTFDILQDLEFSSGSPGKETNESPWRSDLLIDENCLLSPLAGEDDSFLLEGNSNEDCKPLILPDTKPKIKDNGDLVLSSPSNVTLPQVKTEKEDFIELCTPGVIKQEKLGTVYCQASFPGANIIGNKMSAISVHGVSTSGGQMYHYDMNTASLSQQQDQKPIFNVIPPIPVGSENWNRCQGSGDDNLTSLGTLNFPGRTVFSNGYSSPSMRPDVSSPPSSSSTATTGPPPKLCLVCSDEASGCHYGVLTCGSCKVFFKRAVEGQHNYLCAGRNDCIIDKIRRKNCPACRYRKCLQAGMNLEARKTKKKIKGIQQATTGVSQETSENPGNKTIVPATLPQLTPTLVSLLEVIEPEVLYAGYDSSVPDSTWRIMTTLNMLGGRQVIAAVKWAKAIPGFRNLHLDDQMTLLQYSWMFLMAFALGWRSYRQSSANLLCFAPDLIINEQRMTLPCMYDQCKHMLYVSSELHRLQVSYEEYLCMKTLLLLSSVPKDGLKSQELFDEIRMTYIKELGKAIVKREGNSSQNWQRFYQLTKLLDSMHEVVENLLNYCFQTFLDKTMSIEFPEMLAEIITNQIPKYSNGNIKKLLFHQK
measure: GITAR > GRAMM % SEP (%)

                           structure_smiles              measure  value_unit  reported_measurement
0  COC(=O)c1ccccc1S(=O)(=O)N(CCO)C[C@H]1CCC2=Cc3c(cnn3-c3ccc(F)cc3)C[C@@]21C  GITAR > GRAMM % SEP           %                  56.0
1  CNC(=O)Nc1ccc(S(=O)(=O)N(CCO)C[C@H]2CCC3=Cc4c(cnn4-c4ccc(F)cc4)C[C@@]32C)c(Cl)c1  GITAR > GRAMM % SEP           %                   9.5
2  Cc1nn(C)c(Cl)c1S(=O)(=O)N(CCO)C[C@H]1CCC2=Cc3c(cnn3-c3ccc(F)cc3)C[C@@]21C  GITAR > GRAMM % SEP           %                  52.6
3  Cc1ccccc1S(=O)(=O)N(CC#N)C[C@H]1CCC2=Cc3c(cnn3-c3ccc(F)cc3)C[C@@]21C  GITAR > GRAMM % SEP           %                   8.9

====

Molecular target: glucocorticoid receptor (Homo sapiens)
Construct: endogenous in cells
Sequence (P04150 whole entry): as above
Assay: Ligand binding assay (GR BIND)
Description: • Materials: • Binding Buffer: TEGM (10 mM Tris-HCl, 1 mM EDTA, 10% glycerol, 1 mM beta-mecaptoethanol, 10 mM Sodium Molybdate, pH 7.2) • 50% HAP Slurry: Calbiochem Hydroxylapatite, Fast Flow, in 10 mM Tris, pH 8.0 and 1 mM EDTA. • Wash Buffer: 40 mM Tris, pH7.5, 100 mM KCl, 1 mM EDTA and 1 mM EGTA. […] 25 μL of ^3H-DEX (6 nM) trace and 25 μL compound solution are first mixed together, followed by addition of 50 μL receptor solution. […] IC54s are calculated using DEX as a reference.
pKi: −log10 of the molar value.
Property: pKi; scope: individual compounds
measure: pKi

In [3]: df
Out[3]:
                                   compound  reported_measurement
0  C[C@H](O)CN(C[C@H]1CCC2=Cc3c(cnn3-c3ccc(F)cc3)C[C@@]21C)S(=O)(=O)c1ccc(F)c(Cl)c1                  8.77
1  C[C@]12Cc3cnn(-c4ccc(F)cc4)c3C=C1CC[C@@H]2CN(Cc1cccnn1)S(=O)(=O)CC(F)(F)F                  8.26
2  COCCN(C[C@H]1CCC2=Cc3c(cnn3-c3ccc(F)cc3)C[C@@]21C)S(=O)(=O)c1ccccc1F                  8.54
3  C[C@]12Cc3cnn(-c4ccc(F)cc4)c3C=C1CC[C@@H]2CN(Cc1ccccc1F)S(=O)(=O)c1cccc(C(N)=O)c1                  9.05
4  C[C@]12Cc3cnn(-c4ccc(F)cc4)c3C=C1CC[C@@H]2CN(CC#N)S(=O)(=O)c1cc(Cl)c(Cl)s1                  8.28
5  C[C@]12Cc3cnn(-c4ccc(F)cc4)c3C=C1CC[C@@H]2CN(CCc1ccccc1F)S(=O)(=O)Cc1ccc(Cl)cc1Cl                  8.77
6  C[C@]12Cc3cnn(-c4ccc(F)cc4)c3C=C1CC[C@@H]2CN(CCC(N)C(F)(F)F)S(=O)(=O)CC(F)(F)F (stereo partly shown)                  8.49

====

molecular target: human GR (Homo sapiens, UniProt P04150); assay: Transrepression Assay (GITAR), TNFα-β-lactamase reporter in U937 cells; assay type: cell-based; parameters: U937 cells contain an endogenous glucocorticoid receptor (GR); endogenous in cells; host or cells: U937 cells stably transfected with the TNF-alpha promoter/beta-lactamase reporter; conditions: U-937, U937 cells; maximum activity; read-out: Transrepression U937 Cells GITAR Emax
measure: Emax (%)

>>> df
                                    molecule  measure  value_unit  reported_measurement
 0  Cn1cc(S(=O)(=O)N(CC2CCCO2)C[C@H]2CCC3=Cc4c(cnn4-c4ccc(F)cc4)C[C@@]32C)c(C(F)(F)F)n1 (stereo partly drawn)     Emax           %                  47.5
 1  Cn1cc(S(=O)(=O)N(CCO)C[C@H]2CCC3=Cc4c(cnn4-c4ccc(F)cc4)C[C@@]32C)c(C(F)(F)F)n1     Emax           %                    61
 2  Cc1noc(C)c1S(=O)(=O)N(C[C@H]1CCC2=Cc3c(cnn3-c3ccc(F)cc3)C[C@@]21C)C[C@@H](C)O     Emax           %                  83.1
 3  CC(=O)Nc1ccc(S(=O)(=O)N(CCO)C[C@H]2CCC3=Cc4c(cnn4-c4ccc(F)cc4)C[C@@]32C)cc1     Emax           %                  38.8
 4  C[C@]12Cc3cnn(-c4ccc(F)cc4)c3C=C1CC[C@@H]2CN(CCCc1ccccc1)S(=O)(=O)CC(F)(F)F     Emax           %                    74
 5  C[C@]12Cc3cnn(-c4ccc(F)cc4)c3C=C1CC[C@@H]2CN(CC#N)S(=O)(=O)Cc1cccc(C(F)(F)F)c1     Emax           %                  19.9
 6  Cc1ccccc1S(=O)(=O)N(CC#N)C[C@H]1CCC2=Cc3c(cnn3-c3ccc(F)cc3)C[C@@]21C     Emax           %                    23
 7  C[C@]12Cc3cnn(-c4ccc(F)cc4)c3C=C1CC[C@@H]2CN(CC#N)S(=O)(=O)c1cc(F)c(F)cc1F     Emax           %                    74
 8  COC(=O)c1ccccc1CS(=O)(=O)N(C[C@H]1CCC2=Cc3c(cnn3-c3ccc(F)cc3)C[C@@]21C)C[C@H](C)O     Emax           %                  79.2
 9  CC(C1CCC2=Cc3c(cnn3-c3ccc(F)cc3)C[C@@]21C)N(CCc1ccccc1F)S(=O)(=O)CC(F)(F)F (stereo partly drawn)     Emax           %                  71.8
10  CN1CCOc2cc(S(=O)(=O)N(CC3CC3)C[C@H]3CCC4=Cc5c(cnn5-c5ccc(F)cc5)C[C@@]43C)ccc21     Emax           %                  17.4
11  C[C@]12Cc3cnn(-c4ccc(F)cc4)c3C=C1CC[C@@H]2CN(CC1CCCO1)S(=O)(=O)Cc1cccc(C(F)(F)F)c1 (stereo partly drawn)     Emax           %                  26.2
12  C[C@]12Cc3cnn(-c4ccc(F)cc4)c3C=C1CC[C@@H]2CN(CC#N)S(=O)(=O)c1ccccc1F     Emax           %                  71.8
13  C[C@]12Cc3cnn(-c4ccc(F)cc4)c3C=C1CC[C@@H]2CN(CCc1ccccc1Cl)S(=O)(=O)c1ccccc1F     Emax           %                  68.5
14  C[C@H](O)CN(C[C@H]1CCC2=Cc3c(cnn3-c3ccc(F)cc3)C[C@@]21C)S(=O)(=O)Cc1ccccc1C(=O)O     Emax           %                  23.2
15  C[C@]12Cc3cnn(-c4ccc(F)cc4)c3C=C1CC[C@@H]2CN(CC#N)S(=O)(=O)c1cc(F)cc(F)c1     Emax           %                  65.6
16  C[C@]12Cc3cnn(-c4ccc(F)cc4)c3C=C1CC[C@@H]2CN(CC1CC1)S(=O)(=O)c1ccc(-c2ccccc2)cc1     Emax           %                  46.6
17  C[C@]12Cc3cnn(-c4ccc(F)cc4)c3C=C1CC[C@@H]2CNS(=O)(=O)Cc1cccnc1     Emax           %                  68.5
18  C[C@]12Cc3cnn(-c4ccc(F)cc4)c3C=C1CC[C@@H]2CN(CC(O)c1ccncc1)S(=O)(=O)CC(F)(F)F (stereo partly drawn)     Emax           %                  91.6
19  COc1ccccc1CCN(C[C@H]1CCC2=Cc3c(cnn3-c3ccc(F)cc3)C[C@@]21C)S(=O)(=O)Cc1cccc(C(F)(F)F)c1     Emax           %                  15.9
20  C[C@]12Cc3cnn(-c4ccc(F)cc4)c3C=C1CC[C@@H]2CN(CCO)S(=O)(=O)c1ccc(Oc2ccccn2)cc1     Emax           %                  44.1
21  COCCN(C[C@H]1CCC2=Cc3c(cnn3-c3ccc(F)cc3)C[C@@]21C)S(=O)(=O)CC(F)(F)F     Emax           %                  85.9
22  C[C@]12Cc3cnn(-c4ccc(F)cc4)c3C=C1CC[C@@H]2CN(CCc1ccccc1O)S(=O)(=O)Cc1cccc(C(F)(F)F)c1     Emax           %                  39.7
23  C[C@]12Cc3cnn(-c4ccc(F)cc4)c3C=C1CC[C@@H]2CN(CC(O)c1ccccn1)S(=O)(=O)CC(F)(F)F (stereo partly drawn)     Emax           %                  92.5
24  C[C@]12Cc3cnn(-c4ccc(F)cc4)c3C=C1CC[C@@H]2CN(CC#N)S(=O)(=O)c1cc(OCC(F)(F)F)ccc1OCC(F)(F)F     Emax           %                  91.9
25  C[C@]12Cc3cnn(-c4ccc(F)cc4)c3C=C1CC[C@@H]2CN(CCO)S(=O)(=O)Cc1ccccc1C(N)=O     Emax           %                  15.5
26  COCCN(C[C@H]1CCC2=Cc3c(cnn3-c3ccc(F)cc3)C[C@@]21C)S(=O)(=O)CCN1C(=O)c2ccccc2C1=O     Emax           %                  34.1
